- assay-target: human RORγt ligand binding domain (RORγt LBD) (Homo sapiens (Human), UniProt P51449)
- Sequence (P51449 other isoform, or with tags, fused parts or gaps): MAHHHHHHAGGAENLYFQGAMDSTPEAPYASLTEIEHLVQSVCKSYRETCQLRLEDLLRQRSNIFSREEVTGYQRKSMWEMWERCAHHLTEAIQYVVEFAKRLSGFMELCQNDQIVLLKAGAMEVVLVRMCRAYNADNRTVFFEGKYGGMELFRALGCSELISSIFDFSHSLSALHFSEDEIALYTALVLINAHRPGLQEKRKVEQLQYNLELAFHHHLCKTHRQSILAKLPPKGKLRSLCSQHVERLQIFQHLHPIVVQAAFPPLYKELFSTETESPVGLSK
- test-details: RORγt ThermoFluor assay (thermal shift binding affinity)
- condition-parameters: estimated from thermal shift
observed-property: Kd (µM)

Consider the worked cases shown below.
{"compound": "Cn1cc(C(O)(c2ccc(Cl)cc2)c2ccc3nc(Cl)c(Cc4ccccc4)c(Cl)c3c2)cn1 (stereo not drawn) [Example 49]", "Kd [µM]": 0.33}
{"compound": "CS(=O)(=O)c1ccc(Cc2c(Cl)nc3ccc(C(O)(c4cccnc4)c4cccc(Cl)c4)cc3c2Cl)cc1 (stereo not drawn) [Example 8]", "Kd [µM]": 0.043}
{"compound": "COc1nc2ccc(C(O)(c3ccc(C(F)(F)F)nc3)c3cncn3C)cc2c(C#N)c1Cc1ccc(-n2cccn2)cc1 (single isomer, unassigned) [Example 73C]", "Kd [µM]": 0.034}
{"compound": "COc1nc2ccc(C(O)(c3ccc(N(C)C)cc3)c3cncn3C)cc2c(Cl)c1Cc1ccc(-n2cccn2)cc1 (stereo not drawn) [Example 26]", "Kd [µM]": 0.22}
{"compound": "Cn1cncc1C(O)(c1ccc(C(F)(F)F)nc1)c1ccc2nc(C#N)c(Cc3ccc(-n4cccn4)cc3)cc2c1 (single isomer, unassigned) [Example 70B]", "Kd [µM]": 1.1}

[P] COc1nc2ccc(C(O)(c3cnnn3C)C3CN(C(C)=O)C3)cc2c(Cl)c1Cc1ccc(C(F)(F)F)cc1 (single isomer, unassigned) [Example 97B]
[Q] OC(c1ccc(Cl)cc1)(c1cccnc1)c1ccc2nc(Cl)c(Cc3ccc(-n4cccn4)cc3)c(Cl)c2c1 (stereo not drawn) [Example 45]
Hi, I'm comparing P with Q and wondering which one has the bigger number for Kd. Any idea? # reply format: chosen label
Q
(Q: 0.068 µM, P: 0.0014 µM)

[A] COc1nc2ccc(C(O)(c3cnnn3C)c3cnc(C)n3C)cc2c(C#N)c1Cc1ccc(C(F)(F)F)cc1 (stereo not drawn) [Example 81A]
[B] CCN(CC)c1nc2ccc(C(O)(c3ccc(Cl)cc3)c3cncn3C)cc2c(Cl)c1Cc1ccc(-n2cccn2)cc1 (single isomer, unassigned) [Example 75C]
Param metric = Kd; output whichever of A , B has the minimum value. Provide the label of your selected option as the answer.
A
(A: 0.00012 µM, B: 0.15 µM)

----------
- assay-target: human RORγt LBD (Homo sapiens (Human))
- Sequence (P51449 258-518): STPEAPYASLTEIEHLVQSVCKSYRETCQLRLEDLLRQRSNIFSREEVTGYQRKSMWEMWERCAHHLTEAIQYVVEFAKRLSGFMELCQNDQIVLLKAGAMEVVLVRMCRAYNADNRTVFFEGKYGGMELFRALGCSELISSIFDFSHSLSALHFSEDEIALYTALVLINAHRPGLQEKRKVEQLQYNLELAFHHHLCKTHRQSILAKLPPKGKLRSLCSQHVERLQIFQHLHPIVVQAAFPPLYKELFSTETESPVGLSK
- test-details: RORγt reporter assay (GAL4-RORγt LBD luciferase in HEK293T cells)
- Type: cell-based
- condition-parameters: HEK-293T, read-out: RORγt reporter Assay, % inhibition @ 6 μM, HEK293T cells, 6 μM
observed-property: inhibition at 6 µM (%)

Solved entries (count: 4):
{"compound": "CCOc1nc2ccc(C(O)(c3ccc(OC)nc3)c3cncs3)cc2c(Cl)c1Cc1ccccc1 (stereo not drawn)", "observed-property": "inhibition at 6 µM", "result": 57}
{"compound": "Cn1cncc1C(O)(c1ccc2nc(Cl)c(Cc3ccc(-n4cccn4)cc3)c(Cl)c2c1)c1cncs1 (stereo not drawn)", "observed-property": "inhibition at 6 µM", "result": 104}
{"compound": "COc1nc2ccc(C(O)(c3cnnn3C)c3cnc(C)n3C)cc2c(C#N)c1Cc1ccc(C(F)(F)F)cc1 (stereo not drawn) [Example 81A]", "observed-property": "inhibition at 6 µM", "result": 104}
{"compound": "CCc1nc2ccc(C(O)(c3cnnn3C)C3CN(S(C)(=O)=O)C3)cc2c(Cl)c1Cc1ccc(C(F)(F)F)cc1 (stereo not drawn) [Example 91A]", "observed-property": "inhibition at 6 µM", "result": 100}

[I] COc1nc2ccc(C(O)(c3ccc(C(F)(F)F)nc3)c3cncn3C)cc2c(Cl)c1Cc1ccc(C(F)(F)F)nc1 (stereo not drawn) [Example 94A]
[II] COc1nc2ccc(C(O)(c3cccnc3)c3cccc(Cl)c3)cc2c(Cl)c1Cc1ccc(F)cc1 (stereo not drawn)
Higher inhibition at 6 µM: I or II ? // respond with label for picked entry
I
